# Tested on: 966289-007-R4-J1-PDC complex spheroid viability;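 note: spheroids exposed to the agents for seven days before readout; percent viability relative to DMSO vehicle control wells taken as 100%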
# assay-protocol: Anticancer human tumor 966289-007-R4-J1-PDC patient-derived pancreatic adenocarcinoma cell line growth inhibition [GQUAD]
# measurement-context: second compound 0.0316 µM; first compound 3.16 µM; hits give low values
Reported viability, T/C values for a set of compounds
API: value field is a number in %; no unit string.

Check out these entries, answers already filled in.
Nc1ccn(C2OC(CO)C(O)C2(F)F)c(=O)n1 (stereo unspecified) + CN(C)c1ccc(Nc2c3ccc(NC(=O)CCN4CCCC4)cc3nc3cc(NC(=O)CCN4CCCC4)ccc23)cc1    0.85
CC1COCCN1c1cc(C2(S(C)(=N)=O)CC2)nc(-c2ccnc3[nH]ccc23)n1 (stereo unspecified) + Cc1cnc(CNC(=O)c2c(=O)c3ccc(N4CCCN(C)CC4)nc3n3c2sc2ccccc23)cn1    68.7
COc1ccc([C@@H](O)c2cc(-c3ncnc4cc(N5CCOCC5)ccc34)c(F)cc2Cl)nn1 + CN(C)c1ccc(Nc2c3ccc(NC(=O)CCN4CCCC4)cc3nc3cc(NC(=O)CCN4CCCC4)ccc23)cc1    110
COc1cccc2c1C(=O)c1c(O)c3c(c(O)c1C2=O)CC(O)(C(=O)CO)CC3OC1CC(N)C(O)C(C)O1 (stereo unspecified) + Cc1[nH]c2ccc(F)cc2c1-c1nc2c3cccnc3c3ncccc3c2[nH]1    0.21
CC(=O)O[C@H]1C(=O)[C@@]2(C)[C@H]([C@H](OC(=O)c3ccccc3)[C@]3(O)C[C@H](OC(=O)[C@H](O)[C@@H](NC(=O)c4ccccc4)c4ccccc4)C(C)=C1C3(C)C)[C@]1(OC(C)=O)CO[C@@H]1C[C@@H]2O + CN(C)c1ccc(Nc2c3ccc(NC(=O)CCN4CCCC4)cc3nc3cc(NC(=O)CCN4CCCC4)ccc23)cc1    9.45

Challenge: Sample O=C(c1cc(Cc2n[nH]c(=O)c3ccccc23)ccc1F)N1CCN(C(=O)C2CC2)CC1 + CN(C)c1ccc(Nc2c3ccc(NC(=O)CCN4CCCC4)cc3nc3cc(NC(=O)CCN4CCCC4)ccc23)cc1 — what was its viability, T/C?
Response given: 74.2

Challenge: How about this compound: COc1cc(C2c3cc4c(cc3C(OC3OC5COC(C)OC5C(O)C3O)C3COC(=O)C23)OCO4)cc(OC)c1O (stereo unspecified) + Cc1cnc(CNC(=O)c2c(=O)c3ccc(N4CCCN(C)CC4)nc3n3c2sc2ccccc23)cn1
Response given: 2.18

Challenge: # iterate: COc1ccc([C@@H](O)c2cc(-c3ncnc4cc(N5CCOCC5)ccc34)c(F)cc2Cl)nn1 + Cc1[nH]c2ccc(F)cc2c1-c1nc2c3cccnc3c3ncccc3c2[nH]1
Response given: 112

Challenge: Next record, please: CC1COCCN1c1cc(C2(O)CC3CCC(C2)O3)c2cnn(-c3ccn[nH]3)c2n1 (stereo unspecified) + Cc1cnc(CNC(=O)c2c(=O)c3ccc(N4CCCN(C)CC4)nc3n3c2sc2ccccc23)cn1
Response given: 4.28

Challenge: Similarly, C=CC(=O)N1CCN(c2nc(=O)n(-c3c(C)ccnc3C(C)C)c3nc(-c4c(O)cccc4F)c(F)cc23)C(C)C1 (stereo unspecified) + Cc1[nH]c2ccc(F)cc2c1-c1nc2c3cccnc3c3ncccc3c2[nH]1 ?
Response given: 105

Challenge: Quick one: O=C(NO)c1cnc(N2CCN(S(=O)(=O)c3ccc4ccccc4c3)CC2)nc1 + Cc1[nH]c2ccc(F)cc2c1-c1nc2c3cccnc3c3ncccc3c2[nH]1
Response given: 1.82
